# subject-of-test: IMP-1 (Serratia marcescens, UniProt P52699)
# Construct: Li's Laboratory, Sichuan University (collaborator, a gift and not a purchase)
# Sequence (P52699 19-246 limits assumed): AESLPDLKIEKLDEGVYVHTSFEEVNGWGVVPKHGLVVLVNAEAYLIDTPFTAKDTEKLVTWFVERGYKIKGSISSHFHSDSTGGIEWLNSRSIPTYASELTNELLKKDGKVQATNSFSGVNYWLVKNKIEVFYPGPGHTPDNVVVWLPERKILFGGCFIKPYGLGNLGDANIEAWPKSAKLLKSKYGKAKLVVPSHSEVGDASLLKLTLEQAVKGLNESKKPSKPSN
# protocol-text: IMP-1 inhibition assay (FC5 fluorogenic substrate)
# Format: biochemical
# measurement-setup: @ 10 μM; mean ± SD (n = 3)
measure-name: inhibition at 10 µM (%)
One number for each entry, in %.

Clc1ccc(-c2nnc3n2CCCS3)cc1 [5k] | 5
c1csc(-c2nnc3n2CCCS3)c1 [10b] | 27

I'm hoping you can list inhibition at 10 µM for every compound here, please.
1. c1ccc(-c2nnc3n2CCCS3)nc1 [5q]
2. Fc1cccc(-c2nnc3n2CCCS3)c1 [5e]
3. O=C(O)c1ccccc1-c1nnc2n1CCCS2 [compound 14]
4. Oc1ccccc1-c1nnc2n1CCCS2 [compound 6]
5. Fc1ccc(-c2nnc3n2CCCS3)cc1 [5j]
6. Cc1ccccc1-c1nnc2n1CCCS2 [5b]
7. O=C(O)c1ccccc1-c1nnc2n1C(=O)CS2 [compound 15]

3
4
18
5
13
21
19
